Just for reference, patent US20230025129A1 is where these values come from.

Listed here: items and their measured Inhibition enzymatic activity mouse MTP2 protein (IC50).
target system: T1, mouse matriptase-2 ECD protein his tag (mouse, UniProt Q9DBI0 80-811)
T1 sequence: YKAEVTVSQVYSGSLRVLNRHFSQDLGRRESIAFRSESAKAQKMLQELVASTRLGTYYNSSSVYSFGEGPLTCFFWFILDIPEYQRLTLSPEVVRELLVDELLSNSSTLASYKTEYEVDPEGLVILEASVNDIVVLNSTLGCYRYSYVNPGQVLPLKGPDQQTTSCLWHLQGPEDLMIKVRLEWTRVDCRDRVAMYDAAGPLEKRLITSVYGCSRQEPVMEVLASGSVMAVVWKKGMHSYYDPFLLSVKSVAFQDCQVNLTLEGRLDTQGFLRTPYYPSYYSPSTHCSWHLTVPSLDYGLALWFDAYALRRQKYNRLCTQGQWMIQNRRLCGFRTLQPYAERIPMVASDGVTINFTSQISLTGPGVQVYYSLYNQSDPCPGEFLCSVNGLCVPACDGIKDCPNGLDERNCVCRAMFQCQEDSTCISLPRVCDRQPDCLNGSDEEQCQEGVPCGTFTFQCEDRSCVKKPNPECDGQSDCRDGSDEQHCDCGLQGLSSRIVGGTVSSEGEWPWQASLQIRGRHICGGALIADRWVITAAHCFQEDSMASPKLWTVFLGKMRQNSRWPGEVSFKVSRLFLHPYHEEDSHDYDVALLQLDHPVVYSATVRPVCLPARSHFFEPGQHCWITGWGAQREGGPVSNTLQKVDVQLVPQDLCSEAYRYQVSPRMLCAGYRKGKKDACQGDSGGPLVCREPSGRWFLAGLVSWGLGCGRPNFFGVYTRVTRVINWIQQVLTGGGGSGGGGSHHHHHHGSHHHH
protocol text: cell-based or functional assay
State just the number; it will be interpreted in nM.

Worked examples follow.
INSERT INTO measurements (binder, number) VALUES
  ('NORI-005 (antibody, human IgG4 S228P, kappa, V domains shown) VH: EVHLVESGGGLIKPGRSLRLSCTGSGFTFGDFGLSWFRQAPGKGLEWISFIRSKPYGGTTDYAASVKGRFTISRDDSKSVAYLQMNSLKTEDSAVYYCARNEILTGYYIFDYWGQGILVTVSS VL: DIQMTQSPSSLSASLGDRLTITCQASQDISNYLSWYQLQPGKAPKLLIFDASILETGVPSRFSGSGSGTDFSFTVSSLQPEDIATYYCQQYDNLPLTFGGGTKVDLKR', 12.7),
  ('NORI-009 (antibody, human IgG4 S228P, lambda, V domains shown, human IgG4PE, lambda) VH: EVQLVESGGGLVQPGRSLRLSCAASGFTFNDHVIYWVRQVPGKGLEWVSTISWNSDTIAYADSVKGRFTISRDNAKNALYLQMNSLRTEDTALYYCAREKDGDFYYDYFAMDVWGQGTTVTVSS VL: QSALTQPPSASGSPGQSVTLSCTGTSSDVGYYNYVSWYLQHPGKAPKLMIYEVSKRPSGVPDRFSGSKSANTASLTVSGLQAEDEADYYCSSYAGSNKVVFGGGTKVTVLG', 17.6);

Form field Inhibition enzymatic activity mouse MTP2 protein (IC50), entry NORI-028 (antibody, human IgG4 S228P, lambda, V domains shown) VH: EVQLVESGGAVVRPGGSLRLSCAISGFILDDYGMNWVRQGPGKGLEWVAGISWNGDSTRYADSVKGRFTISRDNAQNSLYLQMNSLRAEDTALYFCAREYSGDFYYYYYGMDVWGQGTTVTVSS VL: QSALTQPPSASGSPGQSVTISCTGTSSDVGFYNFVSWYQHHPGKAPKLMIYEVSKRPSGVPDRFSGSKSANTASLTVSGLQAEDEADYYCSSYAGSNNLVFGGGTKLTVLG : 8.96

Form field Inhibition enzymatic activity mouse MTP2 protein (IC50), entry NORI-022 (antibody, human IgG4 S228P, lambda, V domains shown) VH: EVRLVESGGGLVQSGGSLRLSCAASGFTFSTYTMNWVRQAPGKGLEWVSYISIRNSIIDYADSVKGRFTISRDNAKNSLYLQMNSLRDEDTAVYYCAREEFCGTTSCYFLDYWGQGILVTVSS VL: QSVLTQPPSVSGAPGQRVTISCTGSSSNIGAGYDVHWYQQLPGTAPKLLIYGNSNRPSGVPDRFSGSKSGTSASLAITGLQAEDEADYYCQSYDSSLSGYVFGTGTKVTVLG : 2.98

Form field Inhibition enzymatic activity mouse MTP2 protein (IC50), entry NORI-032 (antibody, human IgG4 S228P, lambda, V domains shown) VH: QVQLVQSGAEVRKPGAAVKVSCKASGYTFSSFGITWIRQAPGQGLEWMGWISAYNGISNSAQKVQGRVTMTTDTSTSTAYMELRSLRSDDSAVYYCARDRANRDALDVWGQGTKVTVSL VL: SHELTQPPSMSVSPGQTASITCSGDELGDRYACWYQQKPGQSPVLVIYQDTKRPSGIPERFSGSISGNTATLTISGTQAMDEADYYCQAWDSSTVVFGGGTKLTVLG : 0.716
